assay: in vitro; conditions: human, hela cells, % viability
recorded-endpoint: viability at 28.5 h, 10 µM (%)
Quick note: give the figure in %, leave out the unit.

Request: Give viability at 28.5 h, 10 µM for the following compound: `COCc1cc(C[C@H]2CNCC[C@H]2CC(=O)N2CCc3ccccc3C2)no1`
Response: 88.4

Request: Give viability at 28.5 h, 10 µM for the following compound: `CN(Cc1ccco1)C(=O)c1cccc(NC(=O)C2CC2)c1`
Response: 101

Request: Give viability at 28.5 h, 10 µM for the following compound: N#CCSC1=CC(=O)CC(c2ccccc2)S1 (stereo not drawn)
Response: 92.1

Request: Give viability at 28.5 h, 10 µM for the following compound: O=C(CC(Nc1ccccc1Cl)C(=O)O)c1ccccc1 (stereo not drawn)
Response: 81.1

Request: Give viability at 28.5 h, 10 µM for the following compound: O=C(CCN1CCN(CCO)CC1)N1c2ccccc2Sc2ccc(C(F)(F)F)cc21 [CBK278218C]
Response: 96.4

Request: Give viability at 28.5 h, 10 µM for the following compound: `COc1ccc(S(=O)(=O)Nc2sccc2C#N)cc1`
Response: 110

Request: Give viability at 28.5 h, 10 µM for the following compound: `Cc1cccc(C(=O)Nc2c(C(=O)Nc3ccc(Br)cc3)cnn2-c2ccccc2)c1`
Response: 113

Request: Give viability at 28.5 h, 10 µM for the following compound: `Cc1cccn2c(=O)cc(CN3CCc4nn(C)c(=O)cc4C3)nc12`
Response: 98.2

Request: Give viability at 28.5 h, 10 µM for the following compound: `O=C(CSc1nc2ccccc2c(=O)n1Cc1ccccc1)c1ccc(Br)cc1`
Response: 93.4
